- System: NCI-H522
- Assay remarks: relative viability (nuclei count vs DMSO), 5 days (fraction); higher = more cells survive
- Setup conditions: first compound 0.005 µM
Listing: relative viability of selected compounds
Answer using only a numeral; do not append any unit.

| Compound | Assayed target | relative viability |
| --- | --- | --- |
| COc1cc2nccc(Oc3ccc(NC(=O)Nc4cc(C)on4)c(Cl)c3)c2cc1OC [Tivozanib] + Cc1cc(Nc2cc(N3CCN(C)CC3)nc(Sc3ccc(NC(=O)C4CC4)cc3)n2)n[nH]1 [Tozasertib] (partner 0.1 µM) | NCI-H522 | 0.581 |

The value of relative viability measured for the compound COc1cc2nccc(Oc3ccc(NC(=O)Nc4cc(C)on4)c(Cl)c3)c2cc1OC [Tivozanib] + CCNC(=O)c1noc(-c2cc(C(C)C)c(O)cc2O)c1-c1ccc(CN2CCOCC2)cc1 [Luminespib] (partner 0.01 µM) turned out to be 0.903

// sample Nc1ccn([C@@H]2O[C@H](CO)[C@@H](O)[C@@H]2O)c(=O)n1 [Cytarabine] + NC(=O)Nc1cc(-c2cccc(F)c2)sc1C(=O)N[C@H]1CCCNC1 [AZD7762] (partner 0.2 µM) , its relative viability was 0.827

Note to self: relative viability recorded for COc1cc2nccc(Oc3ccc(NC(=O)Nc4cc(C)on4)c(Cl)c3)c2cc1OC [Tivozanib] + NC(=O)Nc1cc(-c2cccc(F)c2)sc1C(=O)N[C@H]1CCCNC1 [AZD7762] (partner 0.2 µM) was 0.903

According to the records, this compound COc1cc2nccc(Oc3ccc(NC(=O)Nc4cc(C)on4)c(Cl)c3)c2cc1OC [Tivozanib] + N=C(N)NC(=N)NCCc1ccccc1 [Phenformin] (partner 250 µM) displays relative viability of 0.595

###

- Test system: NCI-H1299
- Assay remarks: relative viability (nuclei count vs DMSO), 5 days (fraction); higher = more cells survive
- Setup conditions: first compound 158.11 µM
Measurement kind: relative viability

| Compound | relative viability |
| --- | --- |
| O=C(O)CCCCC(CCSCc1ccccc1)SCc1ccccc1 (stereo unspecified) [CPI-613] + C[C@@H](Oc1cc(-c2cnn(C3CCNCC3)c2)cnc1N)c1c(Cl)ccc(F)c1Cl [Crizotinib] (partner 1 µM) | 0.889 |
| O=C(O)CCCCC(CCSCc1ccccc1)SCc1ccccc1 (stereo unspecified) [CPI-613] + O=C(c1cc(Cc2n[nH]c(=O)c3ccccc23)ccc1F)N1CCN(C(=O)C2CC2)CC1 [Olaparib] (partner 8 µM) | 0.909 |
| O=C(O)CCCCC(CCSCc1ccccc1)SCc1ccccc1 (stereo unspecified) [CPI-613] + Cc1nc(NC(=O)N2CCC[C@H]2C(N)=O)sc1-c1ccnc(C(C)(C)C(F)(F)F)c1 [Alpelisib] (partner 2 µM) | 1.09 |
| O=C(O)CCCCC(CCSCc1ccccc1)SCc1ccccc1 (stereo unspecified) [CPI-613] + C[C@]1(O)C[C@@H](c2nc(-c3ccc4ccc(-c5ccccc5)nc4c3)c3c(N)nccn32)C1 [Linsitinib] (partner 1 µM) | 1 |
| O=C(O)CCCCC(CCSCc1ccccc1)SCc1ccccc1 (stereo unspecified) [CPI-613] + CS(=O)(=O)CCNCc1ccc(-c2ccc3ncnc(Nc4ccc(OCc5cccc(F)c5)c(Cl)c4)c3c2)o1 [Lapatinib] (partner 2 µM) | 0.899 |

Read the next record carefully.
So for O=C(O)CCCCC(CCSCc1ccccc1)SCc1ccccc1 (stereo unspecified) [CPI-613] + CC(C)C[C@H](NC(=O)[C@H](Cc1ccccc1)NC(=O)c1cnccn1)B(O)O [Bortezomib] (partner 0.002 µM) , the logged relative viability turned out to be 1.06

###

- System: NCI-H838
- Assay remarks: relative viability (nuclei count vs DMSO), 5 days (fraction); higher = more cells survive
- Setup conditions: first compound 15.81 µM
Measurement kind: relative viability
Lab note: write the figure by itself, no unit.

Look over these answered cases.
| Compound | relative viability |
| --- | --- |
| O=C(O)CCCCC(CCSCc1ccccc1)SCc1ccccc1 (stereo not drawn) [CPI-613] + COc1cc2c(Oc3ccc(NC(=O)C4(C(=O)Nc5ccc(F)cc5)CC4)cc3F)ccnc2cc1OCCCN1CCOCC1 [Foretinib] (partner 0.25 µM) | 1.02 |
| O=C(O)CCCCC(CCSCc1ccccc1)SCc1ccccc1 (stereo not drawn) [CPI-613] + N=C(N)NC(=N)NCCc1ccccc1 [Phenformin] (partner 250 µM) | 0.481 |

Reported relative viability for O=C(O)CCCCC(CCSCc1ccccc1)SCc1ccccc1 (stereo not drawn) [CPI-613] + CC(=O)c1c(C)c2cnc(Nc3ccc(N4CCNCC4)cn3)nc2n(C2CCCC2)c1=O [Palbociclib] (partner 0.5 µM) was 0.189

###

- Tested on: HOP-62
- Assay remarks: relative viability (nuclei count vs DMSO), 5 days (fraction); higher = more cells survive
- Setup conditions: first compound 0.253 µM
Measurement kind: relative viability
Please give only the number in your answer, with no unit.

Examples with their reported relative viability follow.
| Molecule | Quantitative readout |
| --- | --- |
| O=c1[nH]c2ccccc2n1C1CCN(CCCC(c2ccc(F)cc2)c2ccc(F)cc2)CC1 [Pimozide] + Nc1nc2[nH]cc(CCc3ccc(C(=O)N[C@@H](CCC(=O)O)C(=O)O)cc3)c2c(=O)[nH]1 [Pemetrexed] (partner 0.2 µM) | 0.362 |
| O=c1[nH]c2ccccc2n1C1CCN(CCCC(c2ccc(F)cc2)c2ccc(F)cc2)CC1 [Pimozide] + CC(=O)Nc1cccc(-n2c(=O)n(C3CC3)c(=O)c3c(Nc4ccc(I)cc4F)n(C)c(=O)c(C)c32)c1 [Trametinib] (partner 0.02 µM) | 0.347 |
| O=c1[nH]c2ccccc2n1C1CCN(CCCC(c2ccc(F)cc2)c2ccc(F)cc2)CC1 [Pimozide] + CS(=O)(=O)N1CCN(Cc2cc3nc(-c4cccc5[nH]ncc45)nc(N4CCOCC4)c3s2)CC1 [Pictilisib] (partner 1 µM) | 0.694 |

Lab note: next molecule to report on.
relative viability of Cc1cnc(-c2cnc(NCCNc3ccc(C#N)cn3)nc2-c2ccc(Cl)cc2Cl)[nH]1 + N=C(N)NC(=N)NCCc1ccccc1 [Phenformin] (partner 250 µM) , assay on HOP-62, is 0.596

###

- System: HCC-78
- Assay remarks: relative viability (nuclei count vs DMSO), 5 days (fraction); higher = more cells survive
- Setup conditions: first compound 0.0002 µM
Measurement kind: relative viability

Examples with answers:
| Molecule | relative viability |
| --- | --- |
| CC(=O)O[C@@]12CO[C@@H]1C[C@H](O)[C@@]1(C)C(=O)[C@H](O)C3=C(C)[C@@H](OC(=O)[C@H](O)[C@@H](NC(=O)OC(C)(C)C)c4ccccc4)C[C@@](O)([C@@H](OC(=O)c4ccccc4)[C@H]21)C3(C)C [Docetaxel] + N=C(N)NC(=N)NCCc1ccccc1 [Phenformin] (partner 250 µM) | 0.582 |
| CC(=O)O[C@@]12CO[C@@H]1C[C@H](O)[C@@]1(C)C(=O)[C@H](O)C3=C(C)[C@@H](OC(=O)[C@H](O)[C@@H](NC(=O)OC(C)(C)C)c4ccccc4)C[C@@](O)([C@@H](OC(=O)c4ccccc4)[C@H]21)C3(C)C [Docetaxel] + CC(=O)c1c(C)c2cnc(Nc3ccc(N4CCNCC4)cn3)nc2n(C2CCCC2)c1=O [Palbociclib] (partner 0.5 µM) | 0.388 |
| CC(=O)O[C@@]12CO[C@@H]1C[C@H](O)[C@@]1(C)C(=O)[C@H](O)C3=C(C)[C@@H](OC(=O)[C@H](O)[C@@H](NC(=O)OC(C)(C)C)c4ccccc4)C[C@@](O)([C@@H](OC(=O)c4ccccc4)[C@H]21)C3(C)C [Docetaxel] + CS(=O)(=O)N1CCN(Cc2cc3nc(-c4cccc5[nH]ncc45)nc(N4CCOCC4)c3s2)CC1 [Pictilisib] (partner 1 µM) | 0.204 |
| CC(=O)O[C@@]12CO[C@@H]1C[C@H](O)[C@@]1(C)C(=O)[C@H](O)C3=C(C)[C@@H](OC(=O)[C@H](O)[C@@H](NC(=O)OC(C)(C)C)c4ccccc4)C[C@@](O)([C@@H](OC(=O)c4ccccc4)[C@H]21)C3(C)C [Docetaxel] + NC(=O)Nc1cc(-c2cccc(F)c2)sc1C(=O)N[C@H]1CCCNC1 [AZD7762] (partner 0.2 µM) | 0.479 |

// relative viability value for CC(=O)O[C@@]12CO[C@@H]1C[C@H](O)[C@@]1(C)C(=O)[C@H](O)C3=C(C)[C@@H](OC(=O)[C@H](O)[C@@H](NC(=O)OC(C)(C)C)c4ccccc4)C[C@@](O)([C@@H](OC(=O)c4ccccc4)[C@H]21)C3(C)C [Docetaxel] + CC(C)C[C@H](NC(=O)[C@H](Cc1ccccc1)NC(=O)c1cnccn1)B(O)O [Bortezomib] (partner 0.002 µM) : 0.581

Record CC(=O)O[C@@]12CO[C@@H]1C[C@H](O)[C@@]1(C)C(=O)[C@H](O)C3=C(C)[C@@H](OC(=O)[C@H](O)[C@@H](NC(=O)OC(C)(C)C)c4ccccc4)C[C@@](O)([C@@H](OC(=O)c4ccccc4)[C@H]21)C3(C)C [Docetaxel] + O=C(c1cc(Cc2n[nH]c(=O)c3ccccc23)ccc1F)N1CCN(C(=O)C2CC2)CC1 [Olaparib] (partner 8 µM) , field relative viability: 0.859
